Entries annotated with measured OD450
Target: hemagglutinin (HA) of influenza A/Japan/305/57 H2N2 (Influenza A virus A/Japan/305/1957 …, UniProt P03451 16-562)
Assay: ELISA, inactivated whole virions coated; transfection supernatant set 3
Report only the number, with the unit OD450 understood.

Before answering, review these 4 worked examples.
TCN-504 (3251_K17) (antibody, V domains shown) VH: QVQLQESGPGLVKPSETLSLTCAVSGVSISNIDFYWGWIRQPPGKGLEWIGNIYYTGITFYNPSLSSRVAISIDTSKNQFSLTLTSVTAADTAMYYCARHYGDSEAINDAFDIWGQGTMLTVSS VL: EIVMTQSPATLSVSPGERATLSCRASQSVGNSLAWYQQRPGQAPRLLIYGASTRATGIPPRFSGSGSGTEFTLTISSLQTEDFAVYYCQQYINWRPLSFGGGTKVEIK: 3.64
TCN-530 (5248_H10a) (antibody, V domains shown) VH: QVQLVQSGAEVRKPGSSVKVSCKASGGPFMSYAIGWVRQAPGQGLEWMGGINPVFGRPHYAQKFQGRVTIATDDSTKTSYMELSSLTSEDTGMYYCASRYSRSSPGTFESWGQGTLVTVSS VL: EIVMTQFPATLSVSPGERVTLSCRASQSVSNNLAWYQQKPGQPPRLLIYDASTRATGVPAKFSGTGSGTEFTLSISSLQSEDFAVYYCQQYHNWPPSYSFGLGTKLEIK: 3.43
TCN-532 (5262_H18) (antibody, V domains shown) VH: QVQLQESGPGLVKPSETLSLTCTVSGGSVSSETYYWSWIRQPPGKGLEWIGYIYYIGNTDYRPSLKSRVTISLDTSKNQFSLKLSSVTAADTAVYYCARGAYYDSSGYPAFYIWGQGTMVTVSS VL: QSVLTQPPSVSGAPGQRVTISCTGSSSNIGSDYDVHWYKQLPGTAPKLLIFGNSNRPSGVPDRFSGSKSGTSASLAITGLQAEDEADYYCQSYDSSLSGFHVFGSGTKVTVL: 0.08
TCN-529 (5297_H01) (antibody, V domains shown) VH: QITLRESGPTLVKPTQTLTLTCTFSGFSLSTNGVNVGWIRQPPGKALEWLALIYWDDDKRYSPSLKRRLTITKDTSKNQVVLTLTNMDPVDTATYYCAHRPDFYGDFEYWGPGTLVTVSS VL: QSALTQPASVSGSPGQSITISCTGSSSDIGGYNYVSWYQQHPGKAPKLMIYDVNNRPSGVSNRFSGSKSGNTASLTISGLQTDDEADYYCGSYTGSPHYVFGTGTKVTVL: 0.1

Now, please, on to the next binder.
INPUT: Looking for the measured OD450 of TCN-531 (5091_H13) (antibody, V domains shown) VH: EVQLVESGGDLVQPGRSLKLSCTGSGFTFGDYGVTWVRQAPGKGLEWVGFIRTRPWGGTADTAASVKGRFTISRDDSKSLAYLQMNSLKTEDTAVYYCCRDAPPNVEVASMTNWYFDLWGRGTLVTVSS VL: DIQLTQSPSSLSASVGDRVTITCRASQGILNCLAWYQQKPGKVPNLLMYAASTLQSGVPSRFSGSGFGTDFTLTISSLQPEDVATYYCQTYGGVSTFGGGTKVEIR , can you help?
OUTPUT: 0.09
